measurement_protocol: Thermodynamic solubility (pH solubility profiling)
Format: physicochemical
reported_conditions: pH 2, simulated gastric fluid, thermodynamic from solid, 0.01N HCl, ambient temperature
quantity_kind: solubility thermodynamic at 4 days

Consider the following illustrative entries.
O=C1CNCc2cc(/C=C/C(=O)N3CC4C=C(c5nccs5)CC4C3)cnc2N1 (stereo not shown) [compound 48] = > 2560 µg/mL
O=C(Nc1ccc(/C=C/C(=O)N2CC3C=C(c4ccncc4)CC3C2)cn1)c1cccnc1 (stereo not shown) [compound 9] = > 1250 µg/mL
O=C1Nc2ncc(/C=C/C(=O)N3CC4C=C(c5ccccc5)CC4C3)cc2CN2CCNCC12 (stereo not shown) [compound 79] = > 1160 µg/mL

Sample O=C1Nc2ncc(/C=C/C(=O)N3CC4C=C(c5nccs5)CC4C3)cc2CN2CCOCC12 (stereo not shown) [Cpd. No. 74] — what was its solubility thermodynamic at 4 days?
670 µg/mL

---

tgt: S. aureus ATCC 29213 FabI (Staphylococcus aureus, UniProt Q6GI75)
Sequence (Q6GI75 1-256): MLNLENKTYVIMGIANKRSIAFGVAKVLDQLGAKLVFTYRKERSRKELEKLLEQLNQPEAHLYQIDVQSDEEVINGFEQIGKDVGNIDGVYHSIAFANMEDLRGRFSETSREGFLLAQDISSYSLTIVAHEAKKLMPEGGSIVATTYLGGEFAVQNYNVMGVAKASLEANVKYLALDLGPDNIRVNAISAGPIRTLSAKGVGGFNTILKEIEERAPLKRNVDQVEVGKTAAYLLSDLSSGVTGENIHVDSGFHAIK
measurement_protocol: Staphylococcus aureus FabI enzyme inhibition assay
Format: biochemical
reported_conditions: read-out: FabI (300.235) IC50 (converted)
quantity_kind: IC50 (nM)

Solved entries (count: 5):
O=C(Nc1ccc(/C=C/C(=O)N2CC3C=C(c4ccccc4)CC3C2)cn1)c1cccnc1 (stereo not shown) [Cpd. No. 3] = 1810
O=C(Nc1ccc(/C=C/C(=O)N2CC3C=C(c4ccccc4)CC3C2)cn1)c1cc(F)c(Cl)nc1Cl (stereo not shown) [compound 29] = 9320
O=C1Nc2ncc(/C=C/C(=O)N3CC4C=C(c5ccsc5)CC4C3)cc2CN2CCOCC12 (stereo not shown) [compound 70] = 1450
O=C(Cc1ccncc1)Nc1ccc(/C=C/C(=O)N2CC3C=C(c4ccncc4)CC3C2)cn1 (stereo not shown) [compound 17] = 1440
Cc1occc1C(=O)Nc1ccc(/C=C/C(=O)N2CC3C=C(c4ccccc4)CC3C2)cn1 (stereo not shown) [compound 11] = 3230

P: O=C1Nc2ncc(/C=C/C(=O)N3CC4C=C(c5ccsc5)CC4C3)cc2CO1 (stereo not shown) [compound 35]
Q: O=C(Nc1ccc(/C=C/C(=O)N2CC3C=C(c4ccccc4)CC3C2)cn1)c1ccccn1 (stereo not shown) [compound 24]
R: Cc1cncc(C(=O)Nc2ccc(/C=C/C(=O)N3CC4C=C(c5ccsc5)CC4C3)cn2)c1 (stereo not shown) [compound 5]
S: O=C(Nc1ccc(/C=C/C(=O)N2CC3C=C(c4ccccc4)CC3C2)cn1)c1ccoc1 (stereo not shown) [compound 2]
# desc sort on IC50 across 4 compounds // format: requested-order list of labels
S, Q, R, P

P: Cn1nccc1C1=CC2CN(C(=O)/C=C/c3cnc4c(c3)CNCC(=O)N4)CC2C1 (stereo not shown) [compound 57]
Q: Cc1cc(C(=O)Nc2ccc(/C=C/C(=O)N3CC4C=C(c5ccccc5)CC4C3)cn2)c(C)o1 (stereo not shown) [compound 19]
When the recorded IC50 values are compared, which is smaller: that of P or that of Q ? API: response body contains the label of the selected item.
P

---

measurement_protocol: Cytotoxicity MTT assay (HELAM)
Format: cell-based, Human
reported_conditions: human, HelaM cells, read-out: HELAM (222.125) CC50
quantity_kind: CC50 at 72 h

Cc1cc(NC(=O)c2cccnc2)ncc1/C=C/C(=O)N1CC2C=C(c3ccccc3)CC2C1 (stereo not shown) = > 11.3 µg/mL

Suppose we examine the compound O=C1CNCc2cc(/C=C/C(=O)N3CC4C=C(c5ccsc5)CC4C3)cnc2N1 (stereo not shown) ; what CC50 at 72 h value has been reported?
> 10.2 µg/mL

// returns reported CC50 at 72 h for input CN1CC(=O)Nc2ncc(/C=C/C(=O)N3CC4C=C(c5ccccc5)CC4C3)cc2C1 (stereo not shown)
> 20.8 µg/mL

---

measurement_protocol: Thermodynamic solubility (pH solubility profiling)
Type: physicochemical
reported_conditions: aqueous with cosolvent or surfactant or cyclodextrin, thermodynamic from solid, 20% HP-β-CD buffer pH 4, ambient temperature
Reported values of solubility thermodynamic at 4 days for individual entries

Answered examples (3):
O=C1Nc2ncc(/C=C/C(=O)N3CC4C=C(c5nccs5)CC4C3)cc2CN2CCOCC12 (stereo not shown) [Cpd. No. 74] = > 2360 µg/mL
O=C(Nc1ccc(/C=C/C(=O)N2CC3C=C(c4ccncc4)CC3C2)cn1)c1cccnc1 (stereo not shown) [compound 9] = > 5230 µg/mL
O=C1CNCc2cc(/C=C/C(=O)N3CC4C=C(c5nccs5)CC4C3)cnc2N1 (stereo not shown) [compound 48] = > 4720 µg/mL

Then there is this compound:
Given the compound O=C1Nc2ncc(/C=C/C(=O)N3CC4C=C(c5ccccc5)CC4C3)cc2CN2CCNCC12 (stereo not shown) [compound 79] , what is its reported solubility thermodynamic at 4 days?
> 4450 µg/mL

---

measurement_protocol: In vivo pharmacokinetic and oral bioavailability in mouse
Design: species or system male Swiss mice
reported_conditions: male, Swiss, plasma, po, 10 mg/kg, 20% HP-β-cyclodextrin
quantity_kind: Tmax (h)
Report the figure in h without appending any unit label.

O=C1CNCc2cc(/C=C/C(=O)N3CC4C=C(c5nccs5)CC4C3)cnc2N1 (centres unmarked) = 1.3

Query compound follows.
Data request, read-out Tmax, for O=C1CNCc2cc(/C=C/C(=O)N3CC4C=C(c5ccccc5)CC4C3)cnc2N1 (centres unmarked)
1.7

---

measurement_protocol: In vivo pharmacokinetic and oral bioavailability in mouse
Parameters: species or system male Swiss mice
reported_conditions: male, Swiss, plasma, po, 10 mg/kg, 20% HP-β-cyclodextrin, read-out: Half life (t1/2) (converted)
quantity_kind: half-life (h)
Provide the reading as a plain figure in h.

Need half-life of O=C1CNCc2cc(/C=C/C(=O)N3CC4C=C(c5ccccc5)CC4C3)cnc2N1 (stereo not shown) [Cpd. No. 38] , thanks.
2.2

---

measurement_protocol: In vivo pharmacokinetic and oral bioavailability in mouse
Design: species or system male Swiss mice
reported_conditions: male, Swiss, plasma, iv, 2.5 mg/kg, 20% HP-β-cyclodextrin
quantity_kind: AUC(0-inf) (ng·h/mL)
Supply the numeric figure in ng·h/mL, leaving out any unit text.

Past entries and their recorded results:
O=C1COc2cc(/C=C/C(=O)N3CC4C=C(c5ccccc5)CC4C3)cnc2N1 (stereo not drawn) = 7890
O=C1CNCc2cc(/C=C/C(=O)N3CC4C=C(c5nccs5)CC4C3)cnc2N1 (stereo not drawn) = 1600

Please find the next molecule below.
Give the measured AUC(0-inf) of O=C1CNCc2cc(/C=C/C(=O)N3CC4C=C(c5ccccc5)CC4C3)cnc2N1 (stereo not drawn) .
2000

---

Tested on: S. aureus
measurement_protocol: Antibacterial susceptibility testing, IC90 determination with 10% human serum (STA + 10% HS)
Format: cell-based, Staphylococcus aureus
reported_conditions: Staphylococcus aureus, human serum at final concentration of 10%, read-out: STA + 10% HS (361.169) IC90
quantity_kind: IC90 (µg/mL)

See these solved cases before continuing.
O=C1CNCc2cc(/C=C/C(=O)N3CC4C=C(c5ccccc5)CC4C3)cnc2N1 (stereo not shown) = 0.24
O=C1Nc2ncc(/C=C/C(=O)N3CC4C=C(c5ccsc5)CC4C3)cc2CO1 (stereo not shown) = 0.37

I: O=C(Nc1ccc(/C=C/C(=O)N2CC3C=C(c4ccncc4)CC3C2)cn1)c1cccnc1 (stereo not shown)
II: Nc1ccc(/C=C/C(=O)N2CC3C=C(c4ccccc4)CC3C2)cn1 (stereo not shown)
Higher IC90: I or II ? Respond using the label that marks the chosen record.
II
(II: 2.43 µg/mL, I: 0.39 µg/mL)

---

measurement_protocol: In vivo pharmacokinetic and oral bioavailability in mouse
Parameters: species or system male Swiss mice
reported_conditions: male, Swiss, plasma, po, 5 mg/kg, 20% HP-β-cyclodextrin
quantity_kind: AUC(0-inf) (ng·h/mL)
Number in ng·h/mL, nothing else.

Query: AUC(0-inf); subject: O=C1COc2cc(/C=C/C(=O)N3CC4C=C(c5ccccc5)CC4C3)cnc2N1 (stereo not shown)
15600

---

System: S. aureus
measurement_protocol: Antibacterial susceptibility testing, IC90 determination with 10% human serum (STA + 10% HS)
Type: cell-based, Staphylococcus aureus
reported_conditions: Staphylococcus aureus, human serum at final concentration of 10%, read-out: STA + 10% HS (361.169) IC90
quantity_kind: IC90 (µg/mL)

For orientation, consider the following solved cases.
O=C1CNCc2cc(/C=C/C(=O)N3CC4C=C(c5ccncc5)CC4C3)cnc2N1 (stereo not shown) = 0.35
CC(=O)N1CCN2Cc3cc(/C=C/C(=O)N4CC5C=C(c6ccncc6)CC5C4)cnc3NC(=O)C2C1 (stereo not shown) = 0.87
COc1cncc(C(=O)Nc2ccc(/C=C/C(=O)N3CC4C=C(c5ccccc5)CC4C3)cn2)c1 (stereo not shown) = 0.42
Cn1nccc1C1=CC2CN(C(=O)/C=C/c3cnc4c(c3)CNCC(=O)N4)CC2C1 (stereo not shown) = 1.52
O=C1Nc2ncc(/C=C/C(=O)N3CC4C=C(c5ccccc5)CC4C3)cc2CN2CCSCC12 (stereo not shown) = 0.59
O=C(Cc1ccncc1)Nc1ccc(/C=C/C(=O)N2CC3C=C(c4ccncc4)CC3C2)cn1 (stereo not shown) = 1.4
O=C1COc2cc(/C=C/C(=O)N3CC4C=C(c5ccccc5)CC4C3)cnc2N1 (stereo not shown) = 0.25

1: CC(=O)N1CCN2C(=O)c3cc(/C=C/C(=O)N4CC5C=C(c6ccccc6)CC5C4)cnc3NC(=O)C2C1 (stereo not shown)
2: O=C(Nc1ccc(/C=C/C(=O)N2CC3C=C(c4ccccc4)CC3C2)cn1)c1ccoc1 (stereo not shown)
3: O=C(Nc1ccc(/C=C/C(=O)N2CC3C=C(c4ccsc4)CC3C2)cn1)c1cccnc1 (stereo not shown)
4: O=C(Nc1ccc(/C=C/C(=O)N2CC3C=C(c4ccccc4)CC3C2)cn1)c1ccccc1 (stereo not shown)
Sort these compounds on IC90 so the largest reading comes first. Put the labels in the requested order and list them out.
4, 2, 1, 3
(4: 5.36 µg/mL, 2: 1.66 µg/mL, 1: 0.47 µg/mL, 3: 0.28 µg/mL)
